Answer each item with its documented Dmax.
Target: KRAS^WT (Homo sapiens)
Construct: endogenous wild type
Sequence (P01116 whole entry): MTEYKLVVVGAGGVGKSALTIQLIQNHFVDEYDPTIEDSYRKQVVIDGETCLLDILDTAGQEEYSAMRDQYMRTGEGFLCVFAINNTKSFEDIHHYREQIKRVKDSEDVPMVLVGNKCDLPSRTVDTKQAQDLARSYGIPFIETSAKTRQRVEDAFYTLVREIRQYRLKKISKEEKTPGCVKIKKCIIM
Assay: cell-based
Parameters: KRAS degradation by capillary electrophoresis immunodetection
Conditions: A-375; read-out: Dmax 24 h A375 [%]
Answers are plain numbers, in %.

>>> val("Cc1ncsc1-c1ccc(CNC(=O)[C@@H]2C[C@@H](O)CN2C(=O)[C@@H](c2cc(OCCCCN3CCCN(c4nccc(-c5noc([C@@]6(C)CCCc7sc(N)c(C#N)c76)n5)n4)[C@@H](C)C3)no2)C(C)C)cc1")
100

Task: Item `Cc1ncsc1-c1ccc(CNC(=O)[C@@H]2C[C@@H](O)CN2C(=O)[C@@H](NC(=O)CCCCCN2CCCN(c3nccc(-c4noc([C@@]5(C)CCCc6sc(N)c(C#N)c65)n4)n3)[C@@H](C)C2)C(C)(C)C)cc1` has what recorded Dmax?
Output: 76

// data source = paper doi:10.1101/2023.10.24.563163v2
